experimentDescription: Leishmania major promastigote growth inhibition, primary screen (AID 1063);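 also: promastigotes grown with compound for 44 hours at 28 °C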
conditionParameters: Leishmania major promastigotes, resazurin fluorescence viability; at 10 µM
Out of some 200,000 compounds screened, about 18,000 (9%) were called active. Rule as the data show it: active = inhibition above about 50%; inactive = the rest. The sample holds actives, similar compounds and a random draw of the others, so the mix is not that of the screen.
Bench note: report the call from yes (active), no (inactive)

# lookup: test call for O=C(c1cc2c(s1)CCC2)N1CCN(c2ccccc2)CC1
yes

Also O=C(NCc1ccco1)c1cccn2c(=O)c3c4c(sc3nc12)CCCC4 ?
no

Also O=C(COC(=O)c1cc2c(s1)CCCC2)NCc1ccccc1Cl ?
no

Also O=C(CNC(=O)c1cc2c(s1)CCC2)Nc1ccccc1Br ?
no

----------
experimentDescription: Leishmania major promastigote growth inhibition, primary screen (AID 1063);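 also: promastigotes grown with compound for 44 hours at 28 °C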
conditionParameters: Leishmania major promastigotes, resazurin fluorescence viability; at 10 µM
Hit rate of the full screen: of about 200,000 compounds, about 18,000 (9%) were called active. Cut-off read from the data, not from the text of the source: active = inhibition above about 50%; inactive = the rest. What follows is part of a selection rich in actives, with near analogues and random picks from the rest.
Bench note: report the call from active, inactive

# lookup: test call for O=C(CSc1ccc([N+](=O)[O-])cn1)Nc1ccc(N2CCOCC2)cc1
inactive

Also Cc1ccc(C(=O)OCc2nc(N)nc(Nc3ccccc3C)n2)cc1 ?
active

Also C=CCn1c(CSc2nc3ccccc3s2)nnc1SCC(=O)NCc1ccco1 ?
inactive

Also Cc1ccccc1Nc1nc(N)nc(CSc2nnc3ccccn23)n1 ?
inactive

----------
experimentDescription: Leishmania major promastigote growth inhibition, primary screen (AID 1063);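 also: promastigotes grown with compound for 44 hours at 28 °C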
conditionParameters: Leishmania major promastigotes, resazurin fluorescence viability; at 10 µM
About 18,000 (9%) of roughly 200,000 compounds were called active. No stated cut-off is given here; in the data, active means inhibition above about 50%; inactive means the rest. Only a selection was taken, and actives are over-represented in it overall.
Bench note: report the call from active, inactive

# lookup: test call for Cc1cc(C(=O)OCC(=O)N2c3ccccc3NC(=O)C2(C)C)c(C)n1-c1ccccc1
inactive

Also CCn1c(SCc2ccc(C)cc2)nnc1-c1nn(-c2ccccc2)ccc1=O ?
inactive

Also Cc1cc(C)c(S(=O)(=O)NCCCN2CCOCC2)cc1Br ?
active

Also Cc1ccc2nc(-c3ccc(SCC(=O)Nc4cc(C)on4)nc3)[nH]c2c1 ?
active

Also Cc1cc(Oc2ccccc2)nc(N2CCOCC2)n1 ?
inactive

Also Cc1cc(C)cc(NC(=S)NCCCN2CCOCC2)c1 ?
inactive

Also O=C1OC(/C=C/c2ccccc2)=NC/1=C/c1ccco1 ?
inactive

Also CC(CN1CCOCC1)c1ccccc1 (stereo not given) ?
inactive

Also Fc1ccc2[nH]c3c(N4CCSCC4)ncnc3c2c1 ?
inactive

Also O=C(/C(=C/c1cccc(Cl)c1)c1nc2ccccc2[nH]1)c1ccccc1 ?
active

Also CCOc1ccc(C(C)=O)cc1CSc1nnc(-c2ccncc2)n1CCOC ?
inactive

Also NS(=O)(=O)c1ccc(NC(=S)NC(=O)c2cccnc2)cc1 ?
inactive

Also CC(Nc1nc(N2CCCC2)nc2ccccc12)c1ccccc1 (stereo not given) ?
active

Also Fc1cnc(N2CCOCC2)nc1NCc1ccccc1 ?
inactive

Also Fc1ccc2[nH]c3c(N4CCN(Cc5ccc6c(c5)OCO6)CC4)ncnc3c2c1 ?
active

----------
For each record, write down the corresponding inhibition.
experimentDescription: Leishmania major promastigote growth inhibition, primary screen (AID 1063);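 also: promastigotes grown with compound for 44 hours at 28 °C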
conditionParameters: Leishmania major promastigotes, resazurin fluorescence viability; at 10 µM; active compounds read high
The campaign covered roughly 200,000 compounds. About 18,000 (9%) were called active. The full list was thinned out, with actives kept by preference.
Just the number in %, nothing appended.

Sample O=C(CCS(=O)(=O)Cc1ccccc1)Nc1ccc2c(c1)OCCO2 — what was its inhibition?
-2.36

Also COCC(C)NC(=O)COc1nncc2ccccc12 (stereo not drawn) ?
4.91

Also COC(=O)c1cc(Cl)c(NC(=O)c2ccco2)cc1OC ?
8.8

----------
experimentDescription: Leishmania major promastigote growth inhibition, primary screen (AID 1063);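 also: promastigotes grown with compound for 44 hours at 28 °C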
conditionParameters: Leishmania major promastigotes, resazurin fluorescence viability; at 10 µM; active compounds read high
Among all 200,000 compounds or so, about 18,000 (9%) were called active. The list comes from a sample in which actives are over-represented; it also holds close analogues and randomly drawn compounds.
recordedEndpoint: inhibition (%)
Just the number in %, nothing appended.

Sample O=C(c1ccc(Cl)c([N+](=O)[O-])c1)N1CCN(c2ccccc2)CC1 — what was its inhibition?
-0.23

Also O=C1CS(=O)CN1c1ccc(Oc2ccccc2)cc1 (configuration not stated) ?
-2.75

Also CC(CC(=O)C1C(C)C=CCC1(C)C)NNC(N)=O (configuration not stated) ?
-5.44

Also COc1cc(CC(=O)NCc2cccs2)cc(OC)c1OC ?
-3.33

Also O=C(/C=C/c1cccc([N+](=O)[O-])c1)NCCSCc1ccco1 ?
59.6

Also O=C(N1CCCCC1)N1CCN(C(=O)N2CCCCC2)CC1 ?
-3.35

Also Cc1ccc(NC(=O)CCN2CCc3ccccc3C2)cc1 ?
5.9

Also Cc1nc2ccccn2c1C(=O)NN=C1CCN(C)CC1 ?
35.4

Also CCOC(=O)CNC(=O)/C(=C\c1ccc(F)cc1)NC(=O)c1ccccc1 ?
-2.16

Also CCc1cc(CNC(=O)CC2C(=O)NCCN2CC2CCCCC2)on1 (configuration not stated) ?
-6.55

Also COc1ccc(NC(=S)NCc2cccs2)c(OC)c1 ?
53.3

Also O=C(/C=C/c1ccc([N+](=O)[O-])cc1)NCCSCc1ccco1 ?
62.9

Also O=C(NCc1ccco1)c1ccc(NS(=O)(=O)c2cccc([N+](=O)[O-])c2)cc1 ?
-9.32

Also N/C(=N\OC(=O)Cc1ccccc1[N+](=O)[O-])c1ccc(Br)cc1 ?
10.7

Also COc1ccccc1N(C)S(=O)(=O)c1ccc(Cl)c(C(=O)N2CCC(C(N)=O)CC2)c1 ?
-3.28

Also COc1cccc(N(Cc2nnc3n2CCCCC3)C(=O)Nc2ccccc2F)c1 ?
-3.13

Also CC(=O)NC(NC(=S)Nc1c(C)n(C)n(-c2ccccc2)c1=O)C(Cl)(Cl)Cl (configuration not stated) ?
-10.3

Also CC(=O)C1=C(O)C(=O)N(c2cccnc2)C1c1ccc([N+](=O)[O-])cc1 (configuration not stated) ?
-4.89

Also CCS(=O)(=O)C1=NSC2=NC(=O)/C(=C\c3cc(C)n(-c4cccc(OC)c4)c3C)C(=N)N21 ?
-2.58

Also Cc1ccc(NC(=O)CN2CCc3ccccc3C2)cc1 ?
-2.33

Also CCN(CCCNC(=O)CSc1cc(=O)n(C)c2cc(Cl)ccc12)Cc1ccccc1 ?
20.1

Also S=C(NC1CCCCC1)NN1CCOCC1 ?
-1.39

Also CCOc1cccc(/C=C/c2ccc3ccccc3n2)c1OC(C)=O ?
66

Also CCCCN(C)CCNC(=O)CSCc1ccc(C)cc1 ?
35.7

Also NC(=O)COC(=O)/C=C/c1ccc2ccccc2n1 ?
8.85

Also O=C(c1ccc2c(c1)OCO2)N1CCOCC1 ?
-6.99

Also Cc1ccc(S(=O)(=O)/N=C(/Nc2ccc3[nH]c(=O)[nH]c3c2)c2ccccc2)cc1 ?
-4.98

Also CCOC(=O)c1ccc(N/C(=N/S(=O)(=O)c2ccccc2)c2ccccc2)cc1 ?
61.3

Also O=S(=O)(/N=C(/Nc1ccccc1)c1ccccc1)c1cccs1 ?
1.04

Also CNC(=O)c1[nH]cnc1C(=O)N[C@@H](CC(C)C)C(=O)OC(C)(C)C ?
-2.24

Also O=C(Nc1ccccc1)c1ccc2c(c1)OCO2 ?
-3.43

Also Cc1nn(-c2ccc([N+](=O)[O-])cc2)c(N)c1-c1ccccc1 ?
-4.1

Also CN(C)Cc1ccccc1C1(O)c2ccccc2CSc2ccccc21 (configuration not stated) ?
77.4

Also COc1ccc(C(=O)COC(=O)c2nn(C)c(=O)c3ccccc23)c(OC)c1 ?
-4.39

Also CCC(CC)NC(=O)/C=C/c1cccc([N+](=O)[O-])c1 ?
44.7

Also CCOC(=O)Cc1csc(NC(=O)CSc2ccc(Br)cc2)n1 ?
77.7

Also CCCC(=O)NC(=S)Nc1ccc(CN2CCOCC2)cc1 ?
5.07

----------
experimentDescription: Leishmania major promastigote growth inhibition, primary screen (AID 1063);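 also: promastigotes grown with compound for 44 hours at 28 °C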
conditionParameters: Leishmania major promastigotes, resazurin fluorescence viability; at 10 µM
Screen size: about 200,000 compounds; about 18,000 (9%) were called active. Rule as the data show it: active = inhibition above about 50%; inactive = the rest. For the sample, actives were picked, then their nearest neighbours and some compounds at random.
Bench note: report the call from 1.0 = active, 0.0 = inactive

# lookup: test call for O=C(CN1C(=O)C2C3C=CC(C3)C2C1=O)Nc1nc(-c2ccccn2)cs1 (configuration not stated)
1.0

Also CN1CCN(c2ccc(S(=O)(=O)Nc3ccccc3)cc2[N+](=O)[O-])CC1 ?
1.0

Also CCC(C)(NC(=O)c1ccccn1)C(=O)NC1CCCCC1 (configuration not stated) ?
0.0

Also CCOC(=O)COc1ccc([N+](=O)[O-])cc1 ?
1.0

Also Cc1ccc(CN2CCN(Cc3ccc4ncccc4c3)CC2CCO)cc1 (configuration not stated) ?
1.0

Also COc1cc(NC(=O)CN(C)S(=O)(=O)c2ccc3nc(C)sc3c2)cc(OC)c1 ?
0.0

Also COc1cc(NS(=O)(=O)c2ccc(NC(=O)CN3C(=O)c4ccccc4C3=O)cc2)ncn1 ?
0.0

Also COc1cccc(-n2c(=S)sc3c(=O)n(-c4ccccc4OC)c(SCC4OCCO4)nc32)c1 ?
0.0

Also O=C(Nc1ccc(F)cc1)C1CCN(C(=O)c2ccc([N+](=O)[O-])cc2)CC1 ?
0.0

Also Cc1cccc(N2Cc3ccccc3C2=NC(=O)c2ccc(Cl)nc2)c1 ?
0.0

Also CCOc1cc(NC(=O)c2ccccn2)c(OCC)cc1NC(=O)c1ccc(OC)cc1 ?
0.0

Also CCNS(=O)(=O)c1ccc(NC(=O)Nc2cccc(C(F)(F)F)c2)cc1 ?
0.0

Also CC(=O)C1=C(C)NC(C)=C(C(C)=O)C1c1cn(-c2ccccc2)nc1-c1cccs1 ?
1.0

Also CC(=O)NC1=NN(C(C)=O)C(C)(c2ccc(C)cc2)S1 (configuration not stated) ?
1.0

Also COc1cccc2c1OCC(CN1CCN(C3CCCCC3)C(CCO)C1)=C2 (configuration not stated) ?
0.0

Also CCN(CC)CCOc1ccc2c(c1)C(=NNC(=O)c1ccccn1)c1cc(OCCN(CC)CC)ccc1-2 ?
1.0

Also Cc1ccc(SC(C)C(=O)NCc2ccc(F)cc2)cc1 (configuration not stated) ?
0.0

Also CC(=O)NC1=NN(C(C)=O)C(C)(CCS(=O)(=O)c2ccc(Cl)c(Cl)c2)S1 (configuration not stated) ?
0.0

Also O=S(=O)(c1cccc(C(F)(F)F)c1)N1CCN(c2cnccn2)CC1 ?
0.0

Also CC(=O)c1sc(NC(=O)CCCOc2ccccc2C)nc1C ?
0.0

Also O=C(N/N=C/c1ccc2c(c1)OCO2)C(=O)N1CCCC1 ?
0.0

Also O=C(CCN1C(=O)C2C3C=CC(C3)C2C1=O)Nc1ccccc1F (configuration not stated) ?
0.0

Also Cc1noc(C)c1COc1ccc2ccc(=O)oc2c1 ?
0.0

Also O=C(CN1C(=O)C2C3C=CC(C3)C2C1=O)NCCc1ccccc1Cl (configuration not stated) ?
0.0

Also O=C(COC(=O)c1ccc(Cl)nc1)NCc1cccs1 ?
0.0

Also OCCC1CN(Cc2ccc(Oc3ncccn3)cc2)CCN1CCc1ccccc1 (configuration not stated) ?
1.0

Also CCCCOc1ccc(N(CC(=O)NC(C)C)C(=O)CCC(=O)Nc2ccccn2)cc1 ?
0.0

Also CCN1CCN(C(=O)CCN2C(=O)c3ccccc3C2=O)CC1 ?
0.0

Also CC(C)Oc1ccc(Cc2n[nH]c(=S)n2Cc2ccccc2)cc1Cl ?
0.0

Also O=C(CC1C(=O)NCCN1CC(c1ccccc1)c1ccccc1)NCCc1cn[nH]c1 (configuration not stated) ?
0.0

Also CCOc1ncccc1C(=O)OCC(=O)NC1CC1 ?
0.0

Also COc1ccccc1N1CCN(CC(=O)NCCc2ccc(S(N)(=O)=O)cc2)CC1 ?
0.0

Also Cc1ccc(CN2CCN(Cc3cccc(C)n3)CC2CCO)cc1 (configuration not stated) ?
0.0

Also COC(=O)c1cc(NC(=O)CN2CCN(C(C)=O)CC2)cc(C(=O)OC)c1 ?
0.0

Also CC(=C1C(=O)c2ccccc2C1=O)N1CCN(c2ccccn2)CC1 ?
0.0

Also Cc1cnc(C(=O)OCC(=O)N2CCc3ccccc32)cn1 ?
0.0

Also CC(NC(=O)Nc1ccccc1)C(c1cccs1)N1CCN(c2ccccc2)CC1 (configuration not stated) ?
0.0

Also CC(C)=CCN1CCN(Cc2ccc(Oc3ncccn3)cc2)CC1CCO (configuration not stated) ?
0.0

Also N/C(Cc1ccc([N+](=O)[O-])cc1)=N\OC(=O)COc1ccc2ccccc2c1 ?
0.0

Also O=C(Cc1ccccc1Cl)N1CCN(c2ccccn2)CC1 ?
0.0

Also O=C(NCC(O)c1ccc([N+](=O)[O-])cc1)C1CCCCC1 (configuration not stated) ?
0.0

Also COc1ccc(C)cc1NC(=O)c1ccc(-c2ccc(C(C)=O)cc2)o1 ?
0.0

These measurements were taken from PubChem BioAssay AID1063.
